- Test system: CDK8;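 further: KINOMEscan kinase panel screen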
- testConditions: concentration: 1 μM,replicates: in singlicate; n = 1
valueType: %Inh

Q: Quickly give me recorded %Inh for FC(F)(F)c1cc(Br)cc(Nc2nccc(-c3cnn4ncccc34)n2)c1
Result: 2%

Q: Item CS(=O)(=O)Nc1ccc(-c2ccnc3[nH]ccc23)cc1 : provide %Inh
Result: 18%

Q: Return %Inh for the following compound: Cc1nnc(-c2ccc3occ(-c4ccc(S(C)=O)cc4)c3n2)o1 (stereo not drawn)
Result: 0%

Q: Identify the reported %Inh for the following entry. Cc1ccn2nc(-c3ccc(F)cc3)c(-c3ccncc3)c2c1.Cl
Result: 12%

Q: Consider the compound CS(=O)c1ccc(-c2coc3ccc(-c4n[nH]c(=O)o4)cc23)cc1 (stereo not drawn) . State its measured %Inh.
Result: 91.1%

Q: Please supply the value of reported %Inh for the item COc1cc(Nc2nccc(N3CCC(NC(=O)c4cccc(C#N)c4)C3)n2)cc(OC)c1OC (stereo not drawn)
Result: 6%

Q: Give the reported %Inh for this compound. COc1cc2nccc(Nc3ccc(Oc4ccccc4)cc3)c2cc1OC.Cl
Result: 38%

Q: Dear colleague, please send me the reported %Inh for COc1cccc(CNC(=O)NC2CCN(c3ccnc(Nc4cc(OC)c(OC)c(OC)c4)n3)C2)c1 (stereo not drawn) when you can.
Result: 29%

Q: Please give the documented %Inh of Cc1ccc(CC(=O)N2CCc3cc(-c4cn(C)c5ncnc(N)c45)ccc32)cc1
Result: 83%
